target or test system: CYP3A4 (Homo sapiens)
Sequence (P08684 whole entry): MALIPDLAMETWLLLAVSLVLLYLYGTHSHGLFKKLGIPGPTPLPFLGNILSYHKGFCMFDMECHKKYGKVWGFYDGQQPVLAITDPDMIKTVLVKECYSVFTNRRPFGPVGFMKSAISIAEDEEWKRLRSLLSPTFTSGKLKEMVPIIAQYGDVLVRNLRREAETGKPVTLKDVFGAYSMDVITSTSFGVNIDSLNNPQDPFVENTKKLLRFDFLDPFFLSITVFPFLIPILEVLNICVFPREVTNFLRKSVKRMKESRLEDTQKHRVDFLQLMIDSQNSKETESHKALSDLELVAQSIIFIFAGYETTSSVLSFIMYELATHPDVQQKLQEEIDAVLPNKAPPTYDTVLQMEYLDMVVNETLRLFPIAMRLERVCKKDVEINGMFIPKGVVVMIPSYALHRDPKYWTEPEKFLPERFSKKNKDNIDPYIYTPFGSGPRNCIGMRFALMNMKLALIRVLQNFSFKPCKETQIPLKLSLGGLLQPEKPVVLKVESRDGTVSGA
test summary: in vitro
Description: Inhibition of CYP3A4 (unknown origin) using DBF as substrate at 10 uM
reported metric: inhibition at 10 µM

INSERT INTO results (line_notation, test_result) VALUES
  ('C[C@@H](C[C@@]1(C2CC2)NC(=O)NC1=O)C(=O)N1CCN(c2ccc(F)c(F)c2)[C@@H](C)C1', '< 50%'),
  ('C[C@H]1CN(C(=O)CC[C@@]2(C)NC(=O)NC2=O)CCN1c1ccc(Cl)c(Cl)c1', '< 50%');

----------
test summary: in vivo
condition description: Sprague-Dawley, rat, po, 5 mg/kg
reported metric: Cmax

INSERT INTO measurements (molecule, test_result) VALUES
  ('O=C1NC(=O)C(CCC(=O)N2CCN(c3cccc(Cl)c3)CC2)(C2CC2)N1 (centres undefined)', '1560 ng/mL'),
  ('C[C@H]1CN(C(=O)CC[C@@]2(C)NC(=O)NC2=O)CCN1c1ccc(Cl)c(Cl)c1', '849 ng/mL'),
  ('O=C1NC(=O)C(CCC(=O)N2CCN(c3cccc(Cl)c3)CC2)(c2ccccc2)N1 (centres undefined)', '306 ng/mL'),
  ('O=C1NC(=O)C(CCC(=O)N2CCN(c3cccc(Cl)c3)CC2)(c2cccnc2)N1 (centres undefined)', '141 ng/mL');

Entry source: ChEMBL document CHEMBL4834410
